src = patent US11135234B2

MIC listing for selected compounds.
Tested on: E. faecium ATCC19434
Record the value in µg/mL, omitting the unit from your answer.

Solved entries (count: 3):
{"Compound": "CNC1C(O[C@H]2OC(CO)[C@@H](NC(=N)N)[C@H](O)C2O)O[C@H]2CC(N)[C@@H](O[C@@H]3C(N)C[C@@H](N)C[C@H]3O)OC2C1O (stereo partly shown) [Compound S1-o]", "Measured Endpoint": "MIC", "Units": "µg/mL", "Test Result": 8}
{"Compound": "CNC1C(O[C@H]2OC(CO)[C@@H](NC(=O)[C@@H](O)CN)[C@H](O)C2O)O[C@H]2C[C@H](N)[C@@H](O[C@@H]3C(N)C[C@@H](N)C[C@H]3O)OC2C1O (stereo partly drawn) [Compound V1-r, 6-deoxy-5-epi-4″-N-(L-isoseryl)apramycin]", "Measured Endpoint": "MIC", "Units": "µg/mL", "Test Result": 8}
{"Compound": "NCC[C@H](O)C(=O)N[C@@H]1C[C@H](N)[C@@H](O[C@H]2O[C@H](CN)CC[C@H]2N)[C@H](O)[C@H]1O[C@H]1O[C@H](CO)[C@@H](O)[C@H](N)[C@H]1O [ABK, arbekacin, reference compound]", "Measured Endpoint": "MIC", "Units": "µg/mL", "Test Result": 8}

QUERY: Look up MIC for this compound: CNC1C(O[C@H]2OC(CO)[C@@H](NC(=O)CCN)[C@H](O)C2O)O[C@H]2C[C@H](N)[C@@H](O[C@@H]3C(N)C[C@@H](N)C(O)[C@H]3O)OC2C1O (stereo partly drawn) [Compound V1-m, 4″-N-(β-alanyl)-5-epiapramycin]
RESULT: 16

QUERY: Note, next up: NCC[C@H](O)C(=O)N[C@@H]1C[C@H](N)[C@@H](O[C@H]2O[C@H](CN)[C@@H](O)[C@H](O)[C@H]2O)[C@H](O)[C@H]1O[C@H]1O[C@H](CO)[C@@H](O)[C@H](N)[C@H]1O [AMK, amikacin, reference compound]
RESULT: 32

QUERY: CNC1C(O[C@H]2OC(CO)[C@@H](NC(CN)CN)[C@H](O)C2O)O[C@H]2CC(N)[C@@H](O[C@H]3CC(O)[C@H](N)CC3N)OC2C1O (stereo partly shown) [Compound S1-d] , same question.
RESULT: 16

QUERY: Follow-up item: CNC1C(O[C@H]2OC(CO)[C@@H](NC(CN)CN)[C@H](O)C2O)O[C@H]2CC(N)[C@@H](O[C@H]3CC[C@H](N)CC3N)OC2C1O (stereo partly shown) [Compound T2-d]
RESULT: 4
